Test system: 282377-053-R-J1-PDC complex spheroid viability;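 note: spheroids exposed to agents for seven days before readout; luminescence viability as percent of DMSO vehicle control wells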
Protocol Notes: Anticancer human tumor 282377-053-R-J1-PDC patient-derived colon adenocarcinoma cell line growth inhibition [RAS]
Measurement Context: second compound 0.00949 µM; first compound 0.1 µM; stronger effect = lower value
Text: RAS pathway inhibitors in Combinations in Complex Spheroids A high-throughput screen of multi-cell type tumor spheroids was designed to identify active combinations of RAS pathway inhibitors and targeted small molecules. Complex spheroids include a stromal component modeled by human endothelial cells (HUVEC) and fibroblasts modeled by human mesenchymal stem cells (MSCs). […] Compounds. […] If the clinical Cmax for an agent had not been determined, the highest concentration tested was 10 microM. […]
Measurement Label: viability, T/C

Problem: Report measured viability, T/C; entry is NC1c2ccccc2OC12CCN(c1cnc3c(N4CCCc5ncccc54)n[nH]c3n1)CC2 (stereo not given) + CCn1c(-c2cccnc2C(C)OC)c2c3cc(ccc31)N1CCOC(CC(NC(=O)C(C(C)C)N(C)C(=O)C3(F)CCN(C(=O)C#CC(C)(C)N(C)C)CC3)C(=O)N3CCCC(N3)C(=O)OCC(C)(C)C2)C1
Result: 104%

Problem: Report measured viability, T/C; entry is C[C@@H](NC(=O)c1ncnc(N)c1Cl)c1ncc(C(=O)Nc2cc(C(F)(F)F)c(Cl)cn2)s1 + CCn1c(-c2cccnc2C(C)OC)c2c3cc(ccc31)N1CCOC(CC(NC(=O)C(C(C)C)N(C)C(=O)C3(F)CCN(C(=O)C#CC(C)(C)N(C)C)CC3)C(=O)N3CCCC(N3)C(=O)OCC(C)(C)C2)C1
Result: 89%

Problem: Report measured viability, T/C; entry is Cc1nc(N2CCC3(CC2)COC(C)C3N)c(CO)nc1Sc1ccnc(N)c1Cl (stereo not given) + CCn1c(-c2cccnc2C(C)OC)c2c3cc(ccc31)N1CCOC(CC(NC(=O)C(C(C)C)N(C)C(=O)C3(F)CCN(C(=O)C#CC(C)(C)N(C)C)CC3)C(=O)N3CCCC(N3)C(=O)OCC(C)(C)C2)C1
Result: 85.1%

Problem: Report measured viability, T/C; entry is C=CC(=O)N1CCN(c2nc(OCC3CCCN3C)nc3c(F)c(-c4nc(N)cc(C)c4C(F)(F)F)c(Cl)cc23)C(C)C1 (stereo not given) + CCn1c(-c2cc(N3CCN(C)CC3)cnc2C(C)OC)c2c3cc(ccc31)-c1csc(n1)CC(NC(=O)C1CC1C)C(=O)N1CCCC(N1)C(=O)OCC(C)(C)C2
Result: 89.5%

Problem: Report measured viability, T/C; entry is CCC(CC)c1cc(NC2CCC(N)C2)n2nccc2n1 (stereo not given) + CCn1c(-c2cccnc2C(C)OC)c2c3cc(ccc31)N1CCOC(CC(NC(=O)C(C(C)C)N(C)C(=O)C3(F)CCN(C(=O)C#CC(C)(C)N(C)C)CC3)C(=O)N3CCCC(N3)C(=O)OCC(C)(C)C2)C1
Result: 93.9%

Problem: Report measured viability, T/C; entry is Nc1ccn(C2OC(CO)C(O)C2(F)F)c(=O)n1 (stereo not given) + CCn1c(-c2cc(N3CCN(C)CC3)cnc2C(C)OC)c2c3cc(ccc31)-c1csc(n1)CC(NC(=O)C1CC1C)C(=O)N1CCCC(N1)C(=O)OCC(C)(C)C2
Result: 107%

Problem: Report measured viability, T/C; entry is CCN1CCN(Cc2ccc(Nc3ncc(F)c(-c4cc(F)c5nc(C)n(C(C)C)c5c4)n3)nc2)CC1 + CCn1c(-c2cc(N3CCN(C)CC3)cnc2C(C)OC)c2c3cc(ccc31)-c1csc(n1)CC(NC(=O)C1CC1C)C(=O)N1CCCC(N1)C(=O)OCC(C)(C)C2
Result: 105%

Problem: Report measured viability, T/C; entry is Cc1nc(N2CCC3(CC2)COC(C)C3N)c(CO)nc1Sc1ccnc(N)c1Cl (stereo not given) + CCn1c(-c2cc(N3CCN(C)CC3)cnc2C(C)OC)c2c3cc(ccc31)-c1csc(n1)CC(NC(=O)C1CC1C)C(=O)N1CCCC(N1)C(=O)OCC(C)(C)C2
Result: 64.8%

Problem: Report measured viability, T/C; entry is CC(Nc1ccc2c(c1)OCCn1cc(N3C(=O)OCC3C(F)F)nc1-2)C(N)=O (stereo not given) + CCn1c(-c2cccnc2C(C)OC)c2c3cc(ccc31)N1CCOC(CC(NC(=O)C(C(C)C)N(C)C(=O)C3(F)CCN(C(=O)C#CC(C)(C)N(C)C)CC3)C(=O)N3CCCC(N3)C(=O)OCC(C)(C)C2)C1
Result: 85.9%

Problem: Report measured viability, T/C; entry is CC(=O)OC12COC1CC(O)C1(C)C(=O)C(O)C3=C(C)C(OC(=O)C(O)C(NC(=O)OC(C)(C)C)c4ccccc4)CC(O)(C(OC(=O)c4ccccc4)C21)C3(C)C (stereo not given) + CCn1c(-c2cc(N3CCN(C)CC3)cnc2C(C)OC)c2c3cc(ccc31)-c1csc(n1)CC(NC(=O)C1CC1C)C(=O)N1CCCC(N1)C(=O)OCC(C)(C)C2
Result: 42.6%

Problem: Report measured viability, T/C; entry is CC(C)NCC(C(=O)N1CCN(c2ncnc3c2C(C)CC3O)CC1)c1ccc(Cl)cc1 (stereo not given) + CCn1c(-c2cccnc2C(C)OC)c2c3cc(ccc31)N1CCOC(CC(NC(=O)C(C(C)C)N(C)C(=O)C3(F)CCN(C(=O)C#CC(C)(C)N(C)C)CC3)C(=O)N3CCCC(N3)C(=O)OCC(C)(C)C2)C1
Result: 93%

Problem: Report measured viability, T/C; entry is O=C(c1ccc(F)c(F)c1Nc1ccc(I)cc1F)N1CC(O)([C@@H]2CCCCN2)C1 + CCn1c(-c2cc(N3CCN(C)CC3)cnc2C(C)OC)c2c3cc(ccc31)-c1csc(n1)CC(NC(=O)C1CC1C)C(=O)N1CCCC(N1)C(=O)OCC(C)(C)C2
Result: 34%

Problem: Report measured viability, T/C; entry is CCN1CCN(Cc2ccc(Nc3ncc(F)c(-c4cc(F)c5nc(C)n(C(C)C)c5c4)n3)nc2)CC1 + CCn1c(-c2cccnc2C(C)OC)c2c3cc(ccc31)N1CCOC(CC(NC(=O)C(C(C)C)N(C)C(=O)C3(F)CCN(C(=O)C#CC(C)(C)N(C)C)CC3)C(=O)N3CCCC(N3)C(=O)OCC(C)(C)C2)C1
Result: 90.4%

Problem: Report measured viability, T/C; entry is Nc1ccn(C2OC(CO)C(O)C2(F)F)c(=O)n1 (stereo not given) + CCn1c(-c2cccnc2C(C)OC)c2c3cc(ccc31)N1CCOC(CC(NC(=O)C(C(C)C)N(C)C(=O)C3(F)CCN(C(=O)C#CC(C)(C)N(C)C)CC3)C(=O)N3CCCC(N3)C(=O)OCC(C)(C)C2)C1
Result: 96.8%

Problem: Report measured viability, T/C; entry is O=C(c1ccc(F)c(F)c1Nc1ccc(I)cc1F)N1CC(O)([C@@H]2CCCCN2)C1 + CCn1c(-c2cccnc2C(C)OC)c2c3cc(ccc31)N1CCOC(CC(NC(=O)C(C(C)C)N(C)C(=O)C3(F)CCN(C(=O)C#CC(C)(C)N(C)C)CC3)C(=O)N3CCCC(N3)C(=O)OCC(C)(C)C2)C1
Result: 59.2%

Ref: PubChem BioAssay AID2060905
